Biological target: T1, human Kell glycoprotein, k form (KEL2) (human, UniProt P23276 1-732)
T1 construct: whole, on cells; On human k/k or K-k+ RBCs; also called k antigen
T1 sequence (looked up): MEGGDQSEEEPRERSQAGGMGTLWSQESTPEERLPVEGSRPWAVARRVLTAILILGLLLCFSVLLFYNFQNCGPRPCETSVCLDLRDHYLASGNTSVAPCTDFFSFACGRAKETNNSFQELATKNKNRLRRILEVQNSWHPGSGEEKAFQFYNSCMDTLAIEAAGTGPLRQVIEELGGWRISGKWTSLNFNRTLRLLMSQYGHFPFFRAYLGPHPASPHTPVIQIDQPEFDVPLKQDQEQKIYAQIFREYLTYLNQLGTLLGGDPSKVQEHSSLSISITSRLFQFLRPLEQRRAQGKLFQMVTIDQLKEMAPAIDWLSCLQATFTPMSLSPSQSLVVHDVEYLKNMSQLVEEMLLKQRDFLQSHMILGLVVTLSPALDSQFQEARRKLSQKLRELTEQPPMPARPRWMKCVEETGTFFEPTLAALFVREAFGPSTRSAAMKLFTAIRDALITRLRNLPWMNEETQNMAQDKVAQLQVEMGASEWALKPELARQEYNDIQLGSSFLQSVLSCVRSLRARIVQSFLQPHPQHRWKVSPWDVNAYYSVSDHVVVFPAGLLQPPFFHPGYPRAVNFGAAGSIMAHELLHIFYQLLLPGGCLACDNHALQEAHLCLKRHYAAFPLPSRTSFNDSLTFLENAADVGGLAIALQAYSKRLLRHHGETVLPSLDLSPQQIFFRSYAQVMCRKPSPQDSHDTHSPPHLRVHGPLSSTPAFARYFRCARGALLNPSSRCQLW
Assay: flow cytometry on human K-k+ RBCs

Binder	binding result
PUMA 1 human IgG3-13 isoallotype (antibody, also called PUMA1-IgG3-13; not shown: human kappa light chain constant region (vector pFUSE2-CLIg-hk)) heavy: EVQLQQSGPELVKPGASVKMSCKASGYTFTDYYMKWVKQSHGKSLEWIGDLNPNNGDTFYNQKFKGKATLTVDKSSSTAYIQLNSLTSEDSAVYYCAREAGSSFGSSCNYWGQGTTLTVS light: SVVMTQTPKFLLVSAGDRVTITCKASQTVSKDVAWYQQQPGQSPKLLIYYASNRYTGVPDRFTGSGYGTDFTFTISTVQAEDLAVYFCQQDYSSPYTFGGGTKLEIK	no binding
PUMA 1 human IgG3-15 isoallotype (antibody, Isoallotype named in CLM-00007; not shown: human IgG3 heavy chain constant region, isoallotype IGHG3*15; human kappa light chain constant region (vector pFUSE2-CLIg-hk)) heavy: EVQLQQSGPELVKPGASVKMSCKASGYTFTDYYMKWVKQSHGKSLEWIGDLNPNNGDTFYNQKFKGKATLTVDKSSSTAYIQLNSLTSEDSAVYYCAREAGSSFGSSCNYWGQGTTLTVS light: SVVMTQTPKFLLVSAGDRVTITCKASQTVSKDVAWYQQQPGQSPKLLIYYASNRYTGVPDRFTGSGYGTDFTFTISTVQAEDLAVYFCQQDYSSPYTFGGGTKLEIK	no binding
PUMA 1 human IgG4-03 isoallotype (antibody, not shown: human IgG4 heavy chain constant region, isoallotype IGHG4*03; human kappa light chain constant region (vector pFUSE2-CLIg-hk)) heavy: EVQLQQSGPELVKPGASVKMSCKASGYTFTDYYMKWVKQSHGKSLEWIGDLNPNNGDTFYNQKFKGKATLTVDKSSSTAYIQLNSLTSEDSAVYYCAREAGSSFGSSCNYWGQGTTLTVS light: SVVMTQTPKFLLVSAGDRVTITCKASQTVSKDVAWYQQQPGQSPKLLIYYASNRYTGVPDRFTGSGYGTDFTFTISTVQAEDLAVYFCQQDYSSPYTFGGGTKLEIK	no binding
